- systemTested: human P-gp with 1236T-2677T-3435T genotype (Homo sapiens)
- Sequence (P08183 whole entry): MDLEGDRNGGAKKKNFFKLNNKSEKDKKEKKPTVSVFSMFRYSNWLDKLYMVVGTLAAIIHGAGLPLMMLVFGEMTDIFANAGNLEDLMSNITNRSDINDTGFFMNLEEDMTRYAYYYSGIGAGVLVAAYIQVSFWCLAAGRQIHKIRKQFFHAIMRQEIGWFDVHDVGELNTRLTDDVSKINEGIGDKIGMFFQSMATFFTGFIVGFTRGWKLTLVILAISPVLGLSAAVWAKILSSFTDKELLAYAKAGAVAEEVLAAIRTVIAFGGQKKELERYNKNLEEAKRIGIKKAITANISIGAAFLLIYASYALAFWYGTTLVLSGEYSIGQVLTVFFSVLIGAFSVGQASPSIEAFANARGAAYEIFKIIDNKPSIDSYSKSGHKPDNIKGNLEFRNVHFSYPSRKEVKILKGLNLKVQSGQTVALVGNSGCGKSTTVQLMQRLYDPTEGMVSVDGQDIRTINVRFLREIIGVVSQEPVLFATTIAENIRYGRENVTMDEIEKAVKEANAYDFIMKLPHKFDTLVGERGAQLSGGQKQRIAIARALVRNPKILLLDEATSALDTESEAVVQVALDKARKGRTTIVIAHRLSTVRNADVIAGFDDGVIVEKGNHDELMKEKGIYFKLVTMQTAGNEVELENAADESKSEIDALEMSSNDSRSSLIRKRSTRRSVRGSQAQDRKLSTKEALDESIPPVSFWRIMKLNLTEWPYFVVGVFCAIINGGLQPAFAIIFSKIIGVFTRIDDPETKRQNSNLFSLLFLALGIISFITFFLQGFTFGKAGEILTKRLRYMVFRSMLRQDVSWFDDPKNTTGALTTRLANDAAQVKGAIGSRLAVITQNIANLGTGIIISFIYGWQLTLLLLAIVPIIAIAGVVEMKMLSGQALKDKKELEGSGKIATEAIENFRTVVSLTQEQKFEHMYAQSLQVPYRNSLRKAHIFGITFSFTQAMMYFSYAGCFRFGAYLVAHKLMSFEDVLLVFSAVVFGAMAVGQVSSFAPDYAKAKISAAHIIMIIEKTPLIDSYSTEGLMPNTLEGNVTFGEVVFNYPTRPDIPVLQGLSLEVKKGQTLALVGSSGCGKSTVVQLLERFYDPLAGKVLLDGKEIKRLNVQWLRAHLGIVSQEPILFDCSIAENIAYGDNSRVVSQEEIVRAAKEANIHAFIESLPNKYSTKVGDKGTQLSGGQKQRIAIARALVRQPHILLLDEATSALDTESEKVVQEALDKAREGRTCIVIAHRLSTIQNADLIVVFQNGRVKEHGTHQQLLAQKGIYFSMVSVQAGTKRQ
pKi: −log10 of the molar value.
readout: pKi

>>> reportedresult("CCC(=O)C(CC(C)N(C)C)(c1ccccc1)c1ccccc1 (stereo not shown)")
5.41

====

- systemTested: human P-gp with 1236T-2677A-3435T genotype (Homo sapiens, UniProt P08183, S893T)
- Sequence (P08183 whole entry S893T): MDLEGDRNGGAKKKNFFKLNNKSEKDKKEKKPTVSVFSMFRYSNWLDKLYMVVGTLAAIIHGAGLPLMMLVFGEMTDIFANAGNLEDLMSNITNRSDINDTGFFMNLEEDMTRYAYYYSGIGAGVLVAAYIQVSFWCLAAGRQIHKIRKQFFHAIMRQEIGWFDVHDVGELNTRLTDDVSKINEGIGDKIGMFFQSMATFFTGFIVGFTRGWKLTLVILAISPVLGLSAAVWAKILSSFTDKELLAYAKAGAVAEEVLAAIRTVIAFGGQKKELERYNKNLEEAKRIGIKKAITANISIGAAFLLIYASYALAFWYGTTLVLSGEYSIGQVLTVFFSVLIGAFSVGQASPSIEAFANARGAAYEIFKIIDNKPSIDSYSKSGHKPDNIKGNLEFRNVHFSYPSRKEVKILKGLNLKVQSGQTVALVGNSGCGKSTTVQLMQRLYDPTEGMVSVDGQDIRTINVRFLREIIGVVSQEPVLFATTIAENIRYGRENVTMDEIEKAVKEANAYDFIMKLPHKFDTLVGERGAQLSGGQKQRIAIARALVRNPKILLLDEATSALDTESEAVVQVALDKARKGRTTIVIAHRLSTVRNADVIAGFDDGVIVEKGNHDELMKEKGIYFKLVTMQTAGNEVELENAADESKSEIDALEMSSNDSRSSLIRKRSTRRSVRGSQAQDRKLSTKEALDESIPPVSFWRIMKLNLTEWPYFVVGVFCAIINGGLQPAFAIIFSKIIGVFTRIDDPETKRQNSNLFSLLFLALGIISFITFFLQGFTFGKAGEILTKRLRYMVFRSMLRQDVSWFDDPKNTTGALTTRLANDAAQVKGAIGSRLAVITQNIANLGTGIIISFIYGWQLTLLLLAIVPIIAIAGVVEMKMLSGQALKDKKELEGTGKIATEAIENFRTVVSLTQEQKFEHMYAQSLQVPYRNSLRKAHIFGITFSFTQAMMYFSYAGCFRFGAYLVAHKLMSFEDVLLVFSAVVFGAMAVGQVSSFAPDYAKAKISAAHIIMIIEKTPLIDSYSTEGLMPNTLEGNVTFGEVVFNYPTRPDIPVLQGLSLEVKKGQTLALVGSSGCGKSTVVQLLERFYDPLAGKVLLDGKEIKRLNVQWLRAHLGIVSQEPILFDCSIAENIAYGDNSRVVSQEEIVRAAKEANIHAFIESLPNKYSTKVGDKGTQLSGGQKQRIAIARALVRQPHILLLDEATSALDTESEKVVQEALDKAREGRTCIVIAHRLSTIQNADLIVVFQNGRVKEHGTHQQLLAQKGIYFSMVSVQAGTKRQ
- experimentSummary: cell-based
readout: Ki (µM)

>>> reportedresult("CCC(=O)C(CC(C)N(C)C)(c1ccccc1)c1ccccc1 (stereo not shown)")
4.53

====

- systemTested: human P-gp with 1236T-2677A-3435T genotype (Homo sapiens, UniProt P08183, S893T)
- experimentSummary: cell-based
readout: IC50 (µM)

>>> reportedresult("CCC(=O)C(CC(C)N(C)C)(c1ccccc1)c1ccccc1 (stereo not shown)")
4.43
